pKd reference
# measuredOn: transferrin receptor (hTfR) (Homo sapiens)
# testDetails: Intermolecular interaction evaluation test between transferrin receptor (hTfR) and peptide by surface plasmon resonance (SPR)
# Format: binding
# condition: SPR, hTfR; class symbols A-D; read-out: KD
pKd: −log10 of the molar value.

Examples with answers:
• CC[C@H](C)[C@@H]1NC(=O)[C@H](Cc2ccc(OC)cc2)NC(=O)[C@H](Cc2ccc(O)cc2)NC(=O)[C@H](CC(N)=O)NC(=O)[C@H](Cc2c[nH]c3ccc(Cl)cc23)NC(=O)[C@H](C(C)C)NC(=O)[C@H](Cc2cccc(Cl)c2)N(C)C(=O)[C@H](C(C)C)NC(=O)[C@H](C)NC(=O)CSC[C@@H](C(N)=O)NC(=O)[C@H](Cc2ccc(O)cc2)N(C)C(=O)[C@H](Cc2ccccc2)NC(=O)[C@@H](CCCNC(=N)N)NC(=O)[C@H](CCCNC(=N)N)NC(=O)[C@H]([C@@H](C)CC)NC1=O [compound 464] = < 6.00
• CC[C@H](C)[C@@H]1NC(=O)[C@H](Cc2ccc(OC)cc2)NC(=O)[C@H](Cc2ccc(O)cc2)NC(=O)[C@H](CC(N)=O)NC(=O)[C@H](Cc2c[nH]c3ccccc23)N(C)C(=O)[C@H](C(C)C)NC(=O)[C@H](Cc2ccncc2)N(C)C(=O)[C@H](C(C)C)NC(=O)[C@H](C)NC(=O)CSC[C@@H](C(N)=O)NC(=O)[C@H](Cc2ccc(O)cc2)N(C)C(=O)[C@H](Cc2ccccc2)NC(=O)[C@@H](CCCNC(=N)N)NC(=O)[C@H](CCCNC(=N)N)NC(=O)[C@H]([C@@H](C)CC)NC1=O [compound 451] = 6.00 to 7.00
• CC[C@H](C)[C@@H]1NC(=O)[C@H](Cc2ccc(OC)cc2)NC(=O)[C@H](Cc2ccc(O)cc2)NC(=O)[C@H](CC(N)=O)NC(=O)[C@H](Cc2c[nH]c3ccccc23)N(C)C(=O)[C@H](C(C)C)NC(=O)[C@H](Cc2cccc(Cl)c2)N(C)C(=O)[C@H](C(C)C)NC(=O)[C@H](C)NC(=O)CSC[C@@H](C(N)=O)NC(=O)[C@H](Cc2ccc(O)cc2)N(C)C(=O)[C@H](Cc2cccnc2)NC(=O)[C@@H](CCCNC(=N)N)NC(=O)[C@H](CCCNC(=N)N)NC(=O)[C@H]([C@@H](C)CC)NC1=O [compound 460] = 7.00 to 9.00
• CC[C@H](C)[C@@H]1NC(=O)[C@H](Cc2ccc(O)cc2)NC(=O)[C@H](Cc2ccc(O)cc2)NC(=O)[C@H](CC(N)=O)NC(=O)[C@H](Cc2cn(CC(=O)O)c3ccccc23)NC(=O)[C@H](C(C)C)NC(=O)[C@H](Cc2ccccc2)N(C)C(=O)[C@H](C(C)C)NC(=O)[C@H](C)NC(=O)CSC[C@@H](C(N)=O)NC(=O)[C@H](Cc2ccc(O)cc2)N(C)C(=O)[C@H](Cc2ccc(O)cc2)NC(=O)[C@H](CCCNC(=N)N)NC(=O)C(C)(C)NC(=O)[C@H]([C@@H](C)CC)NC1=O [compound 469] = 7.00 to 9.00
• CC[C@H](C)[C@@H]1NC(=O)[C@H](Cc2ccc(OC)cc2)NC(=O)[C@H](Cc2ccc(O)cc2)NC(=O)[C@H](CC(N)=O)NC(=O)[C@H](Cc2c[nH]c3ccccc23)N(C)C(=O)[C@H](C(C)C)NC(=O)[C@H](Cc2cccc(C(=O)O)c2)N(C)C(=O)[C@H](C(C)C)NC(=O)[C@H](C)NC(=O)CSC[C@@H](C(N)=O)NC(=O)[C@H](Cc2ccc(O)cc2)N(C)C(=O)[C@H](Cc2ccccc2)NC(=O)[C@@H](CCCNC(=N)N)NC(=O)[C@H](CCCNC(=N)N)NC(=O)[C@H]([C@@H](C)CC)NC1=O [compound 452] = 6.00 to 7.00

From here, focus on the item given below.
Input line: # value lookup — system transferrin receptor (hTfR) (Homo sapiens), readout pKd, item CC[C@H](C)[C@@H]1NC(=O)[C@H](Cc2ccc(OC)cc2)NC(=O)[C@H](Cc2ccc(O)cc2)NC(=O)[C@H](CC(N)=O)NC(=O)[C@H](Cc2c[nH]c3ccccc23)N(C)C(=O)[C@H](C(C)C)NC(=O)[C@H](Cc2cccc(Cl)c2)N(C)C(=O)[C@H](C(C)C)NC(=O)[C@H](C)NC(=O)CSC[C@@H](C(N)=O)NC(=O)[C@H](Cc2ccc(O)cc2)N(C)C(=O)[C@H](Cc2cccc(C(=O)O)c2)NC(=O)[C@@H](CCCNC(=N)N)NC(=O)[C@H](CCCNC(=N)N)NC(=O)[C@H]([C@@H](C)CC)NC1=O [compound 461]
Output line: 7.00 to 9.00

* * *

# measuredOn: transferrin receptor (hTfR) (Homo sapiens, UniProt P02786)
# Sequence (P02786 whole entry): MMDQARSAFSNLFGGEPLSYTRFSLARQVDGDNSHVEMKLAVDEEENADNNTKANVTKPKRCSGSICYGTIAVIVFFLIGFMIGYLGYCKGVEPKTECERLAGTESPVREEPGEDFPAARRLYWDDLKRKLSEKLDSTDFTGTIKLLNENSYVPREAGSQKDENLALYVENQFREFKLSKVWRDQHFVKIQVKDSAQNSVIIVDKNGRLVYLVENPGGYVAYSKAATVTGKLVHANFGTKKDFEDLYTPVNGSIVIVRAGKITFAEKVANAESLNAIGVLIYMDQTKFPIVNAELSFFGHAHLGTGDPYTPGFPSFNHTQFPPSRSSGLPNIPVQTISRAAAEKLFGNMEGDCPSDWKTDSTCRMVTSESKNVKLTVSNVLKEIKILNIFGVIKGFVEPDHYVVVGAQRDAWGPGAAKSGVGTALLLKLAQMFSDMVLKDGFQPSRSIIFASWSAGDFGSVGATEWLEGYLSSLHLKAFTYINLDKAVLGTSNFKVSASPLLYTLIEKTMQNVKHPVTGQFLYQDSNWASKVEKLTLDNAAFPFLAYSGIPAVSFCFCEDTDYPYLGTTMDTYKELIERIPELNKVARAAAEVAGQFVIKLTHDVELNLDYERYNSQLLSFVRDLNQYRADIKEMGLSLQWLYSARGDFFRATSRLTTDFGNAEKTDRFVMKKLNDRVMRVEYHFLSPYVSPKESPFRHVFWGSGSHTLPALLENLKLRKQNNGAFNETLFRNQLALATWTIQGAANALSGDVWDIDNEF
# testDetails: Intermolecular interaction evaluation test between transferrin receptor (hTfR) and peptide by surface plasmon resonance (SPR)
# Assay type: binding
# condition: surface plasmon resonance, peptide vs hTfR; read-out: KD value, hTfR binding by SPR (class symbol)
pKd: −log10 of the molar value.
observable: pKd

Input line: Need pKd of CC[C@H](C)[C@@H]1NC(=O)[C@H](Cc2ccc(O)cc2)NC(=O)[C@H](Cc2ccc(O)cc2)NC(=O)[C@H](CC(N)=O)NC(=O)[C@H](Cc2c[nH]c3ccccc23)N(C)C(=O)[C@H](C(C)C)NC(=O)[C@H](Cc2cc(Cl)cc(Cl)c2)N(C)C(=O)[C@H](C(C)C)NC(=O)[C@H](C)NC(=O)CSC[C@@H](C(N)=O)NC(=O)[C@H](Cc2ccc(O)cc2)N(C)C(=O)[C@H](Cc2ccccc2)NC(=O)[C@@H](CCCNC(=N)N)NC(=O)[C@H](CCCNC(=N)N)NC(=O)[C@H]([C@@H](C)CC)NC1=O [compound 302] , thanks.
Output line: 7.00 to 9.00

* * *

pKd reference
# measuredOn: transferrin receptor (hTfR) (Homo sapiens)
# testDetails: Intermolecular interaction evaluation test between transferrin receptor (hTfR) and peptide by surface plasmon resonance (SPR)
# Format: binding
# condition: binding to hTfR by SPR; Table 2 peptides; read-out: KD value (SPR) class
pKd: −log10 of the molar value.

• CC[C@H](C)[C@@H]1NC(=O)[C@H](Cc2ccc(O)cc2)NC(=O)[C@H](Cc2ccc(O)cc2)NC(=O)[C@H](CC(N)=O)NC(=O)[C@H](Cc2c[nH]c3ccccc23)NC(=O)[C@H](C(C)C)NC(=O)[C@H](Cc2ccccc2)NC(=O)[C@H](C(C)C)NC(=O)[C@H](C)NC(=O)CSC[C@@H](C(N)=O)NC(=O)[C@H](Cc2ccc(O)cc2)N(C)C(=O)[C@H](Cc2ccc(O)cc2)NC(=O)[C@H](CCCCN)NC(=O)[C@H](CCCNC(=N)N)NC(=O)[C@H]([C@@H](C)CC)NC1=O = 7.00 to 9.00

From here, focus on the item given below.
Input line: # value lookup — system transferrin receptor (hTfR) (Homo sapiens), readout pKd, item `CC[C@H](C)[C@@H]1NC(=O)[C@H](Cc2ccc(OC)cc2)NC(=O)[C@H](Cc2ccc(O)cc2)NC(=O)[C@H](CC(N)=O)NC(=O)[C@H](Cc2c[nH]c3ccccc23)N(C)C(=O)[C@H](C(C)C)NC(=O)[C@H](Cc2cccc(Cl)c2)N(C)C(=O)[C@H](CCC(=O)O)NC(=O)[C@H](C)NC(=O)CSC[C@@H](C(N)=O)NC(=O)[C@H](Cc2ccc(O)cc2)N(C)C(=O)[C@H](Cc2ccccc2)NC(=O)[C@H](CCCNC(=N)N)NC(=O)[C@H](CCCNC(=N)N)NC(=O)[C@H]([C@@H](C)CC)NC1=O`
Output line: > 9.00

* * *

Kd reference
# measuredOn: transferrin receptor (hTfR) (Homo sapiens, UniProt P02786)
# testDetails: Intermolecular interaction evaluation test between transferrin receptor (hTfR) and peptide by surface plasmon resonance (SPR)
# Type: binding
# condition: binding to hTfR by SPR; Table 2 peptides; read-out: KD value (SPR) class

- CC[C@H](C)[C@@H]1NC(=O)[C@H](Cc2ccc(OC)cc2)NC(=O)[C@H](Cc2ccc(O)cc2)NC(=O)[C@H](CC(N)=O)NC(=O)[C@H](Cc2c[nH]c3ccccc23)N(C)C(=O)[C@H](C(C)C)NC(=O)[C@H](Cc2cccc(Cl)c2)N(C)C(=O)[C@H](CCCCNC(=N)N)NC(=O)[C@H](C)NC(=O)CSC[C@@H](C(N)=O)NC(=O)[C@H](Cc2ccc(O)cc2)N(C)C(=O)[C@H](Cc2ccccc2)NC(=O)[C@@H](CCCNC(=N)N)NC(=O)[C@H](CCCNC(=N)N)NC(=O)[C@H]([C@@H](C)CC)NC1=O: 1 to 100 nM

From here, focus on the item given below.
Input line: Need Kd of `CC[C@H](C)[C@@H]1NC(=O)[C@H](Cc2ccc(O)cc2)NC(=O)[C@H](Cc2ccc(O)cc2)NC(=O)[C@H](CC(N)=O)NC(=O)[C@H](Cc2c[nH]c3ccccc23)N(C)C(=O)[C@H](C(C)C)NC(=O)[C@H](Cc2ccccc2)NC(=O)[C@H](C(C)C)NC(=O)[C@H](C)NC(=O)CSC[C@@H](C(=O)NCCOCCOCCOCCOCCC(N)=O)NC(=O)[C@H](Cc2ccc(O)cc2)N(C)C(=O)[C@H](Cc2ccc(O)cc2)NC(=O)[C@H](CCCNC(=N)N)NC(=O)[C@H](CCCNC(=N)N)NC(=O)[C@H]([C@@H](C)CC)NC1=O` , thanks.
Output line: < 1 nM

Values from patent US20230203098A1
